Source listed as ChEMBL document CHEMBL1130878.

experiment: Compound was evaluated for volume of distribution (steady state) after treatment with iv dose of 1 mgkg to female wistar rats; format: ADME, organism-based; parameters: dose 1 mgkg, route intravenous; conditions: rat, in vivo, 1 mg/kg, read-out: Vss
value-kind: Vd (L/kg)
I only need the number, in L/kg, no unit after it.

[ask] Which Vd value belongs to COc1ccc(C(=O)/C(Cc2cc(OC)c(OC)c(OC)c2)=C(\C(=O)[O-])c2ccc3nsnc3c2)cc1F.[Na+] ?
[reply] 0.2
